# targetUnderTest: T1, DPPIV expressed on HEK293 or CHO cells (Homo sapiens (Human), UniProt P27487 1-766)
# T1 construct: also called close homologue of FAP
# assayProtocol: binding to DPPIV-expressing HEK293 or CHO cells
experimentalEndpoint: binding result

binder: O3C9 Fab (Fab, V domains shown, also called clone O3C9) VH: EVQLLESGGGLVQPGGSLRLSCAASGFTFSSFAMSWVRQSPGKGLEWVSAIIGSGSNTYYADSVKGRFTISRDNSKNTLYLQMNSLRAEDTAVYYCAKGWFGGFNYWGQGTLVTVSS VL: EIVLTQSPGTLSLSPGERATLSCRASQSVTSSYLAWYQQKPGQAPRLLINVGSRRATGIPDRFSGSGSGTDFTLTISRLEPEDFAVYYCQQGIMLPPTFGQGTKVEIK
experimentalEndpoint: binding result
result: no binding
--
binder: 19G1 Fab (Fab, V domains shown, also called clone 19G1) VH: EVQLLESGGGLVQPGGSLRLSCAASGFTFSSYAMSWVRQAPGKGLEWVSAIISSGGLTYYADSVKGRFTISRDNSKNTLYLQMNSLRAEDTAVYYCAKGWFGGFNYWGQGTLVTVSS VL: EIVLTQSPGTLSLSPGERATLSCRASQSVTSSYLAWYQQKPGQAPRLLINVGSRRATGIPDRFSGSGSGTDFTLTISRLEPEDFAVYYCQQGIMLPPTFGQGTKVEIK
experimentalEndpoint: binding result
result: no binding
--
binder: 29B11 Fab (Fab, V domains shown, also called clone 29B11) VH: EVQLLESGGGLVQPGGSLRLSCAASGFTFSSYAMSWVRQAPGKGLEWVSAIIGSGGITYYADSVKGRFTISRDNSKNTLYLQMNSLRAEDTAVYYCAKGWFGGFNYWGQGTLVTVSS VL: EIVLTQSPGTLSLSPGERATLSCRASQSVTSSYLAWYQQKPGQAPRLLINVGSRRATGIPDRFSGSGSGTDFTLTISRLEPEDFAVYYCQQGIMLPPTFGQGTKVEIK
experimentalEndpoint: binding result
result: no binding
